# Measurement Description: Human HepG2 cell viability assay in 384 well format
# Assay type: toxicity, cell-based
# Design: dose 125 nL, time 70.5 hour; concentration not given beside the values
# Measurement Parameters: HepG2 cells, read-out: Inhibition
Flag rule - cytotoxicity at 70.5 h less than -10% flags Y; the remaining entries get N.

Lookup: Hi there! Is cytotoxicity at 70.5 h for `CS(=O)(=O)NC[C@]12COC[C@H]1CN(C(=O)c1ncccn1)C2` below -10%, do you know?
Found: N

Lookup: Hi there! Is cytotoxicity at 70.5 h for `NC(=O)c1ccc(CNC(=O)NCc2cc[nH]n2)cc1` below -10%, do you know?
Found: Y

Lookup: Hi there! Is cytotoxicity at 70.5 h for c1ccc(Cc2noc(CCNC3CCOC4(CCOCC4)C3)n2)cc1 (stereo unspecified) below -10%, do you know?
Found: N

***
Lookup: Hi there! Is cytotoxicity at 70.5 h for COc1ccccc1C(=O)N1CCOCC1c1c(C)n[nH]c1C (stereo unspecified) below -10%, do you know?
Found: Y

Lookup: Hi there! Is cytotoxicity at 70.5 h for `CS(=O)(=O)N[C@@H]1CN(C(=O)c2ccccn2)[C@@H]2CCCO[C@@H]21` below -10%, do you know?
Found: N

* * *

# Measurement Description: Human HepG2 cell viability assay in 384 well format
# Assay type: toxicity, cell-based
# Design: dose 125 nL, time 70.5 hour; concentration not given beside the values
# Measurement Parameters: HepG2 cells, read-out: Inhibition
Measured cytotoxicity at 70.5 h values are reported for all entries that follow.
Show the value, then the unit it is measured in.

Lookup: Give the value of cytotoxicity at 70.5 h reported for the following: `Oc1nnc(-c2cccs2)c2sc(N3CCCC3)nc12`
Found: -6.61%

Lookup: Give the value of cytotoxicity at 70.5 h reported for the following: `O=C(O)c1cccc(CC2CCN(c3ncc(F)cn3)CC2)c1`
Found: -9.85%

Lookup: Give the value of cytotoxicity at 70.5 h reported for the following: `CSc1ccc(C(=O)N2C[C@H]3CC[C@@H]2CN(Cc2cccnc2)C3)cc1`
Found: -5.35%

Lookup: Give the value of cytotoxicity at 70.5 h reported for the following: `COc1cccc(CC(=O)N2CCCN(c3ccnc(C)c3)CC2)c1`
Found: -3.97%

Lookup: Give the value of cytotoxicity at 70.5 h reported for the following: `COc1ccc(-c2cn3c(n2)CO[C@@H](CNCc2nccn2C)C3)cc1`
Found: 6.44%

Lookup: Give the value of cytotoxicity at 70.5 h reported for the following: `CC(C)c1nn(C)c(N(C)C)c1CNCc1cccc2cccnc12`
Found: 5.24%

***
Lookup: Give the value of cytotoxicity at 70.5 h reported for the following: `CN(C)Cc1nn(C)c2c1CN(S(=O)(=O)c1ccccc1F)C2`
Found: -0.163%

Lookup: Give the value of cytotoxicity at 70.5 h reported for the following: CS(=O)(=O)N1CCCCC12CCCN(Cc1nccs1)C2 (stereo not drawn)
Found: 11.6%

Lookup: Give the value of cytotoxicity at 70.5 h reported for the following: `CC(C)(C(=O)NCC(=O)N1CCCC1)c1ccccc1F`
Found: 3.99%

Lookup: Give the value of cytotoxicity at 70.5 h reported for the following: `Cc1noc(C)c1CN1C(=O)[C@H]2CC[C@@H]1CN(Cc1cccnc1N)C2`
Found: 16.1%

Lookup: Give the value of cytotoxicity at 70.5 h reported for the following: `N#Cc1ccc(OCCCN2CCc3cncnc3C2)cc1`
Found: -0.112%

Lookup: Give the value of cytotoxicity at 70.5 h reported for the following: `Cc1nc(NS(=O)(=O)c2cc(Br)ccc2C)no1`
Found: -11.8%

Lookup: Give the value of cytotoxicity at 70.5 h reported for the following: `COc1cccc2[nH]cc(CCNC(=O)N3CCC[C@H]3CO)c12`
Found: -1.09%

Lookup: Give the value of cytotoxicity at 70.5 h reported for the following: `NC(=O)c1cccc(CCNCc2cccs2)c1`
Found: -3.84%
